- assayed.system: Human cRaf1 (Homo sapiens, UniProt P04049)
- Construct: poly-histidine (C); made in house
- Sequence (P04049 whole entry): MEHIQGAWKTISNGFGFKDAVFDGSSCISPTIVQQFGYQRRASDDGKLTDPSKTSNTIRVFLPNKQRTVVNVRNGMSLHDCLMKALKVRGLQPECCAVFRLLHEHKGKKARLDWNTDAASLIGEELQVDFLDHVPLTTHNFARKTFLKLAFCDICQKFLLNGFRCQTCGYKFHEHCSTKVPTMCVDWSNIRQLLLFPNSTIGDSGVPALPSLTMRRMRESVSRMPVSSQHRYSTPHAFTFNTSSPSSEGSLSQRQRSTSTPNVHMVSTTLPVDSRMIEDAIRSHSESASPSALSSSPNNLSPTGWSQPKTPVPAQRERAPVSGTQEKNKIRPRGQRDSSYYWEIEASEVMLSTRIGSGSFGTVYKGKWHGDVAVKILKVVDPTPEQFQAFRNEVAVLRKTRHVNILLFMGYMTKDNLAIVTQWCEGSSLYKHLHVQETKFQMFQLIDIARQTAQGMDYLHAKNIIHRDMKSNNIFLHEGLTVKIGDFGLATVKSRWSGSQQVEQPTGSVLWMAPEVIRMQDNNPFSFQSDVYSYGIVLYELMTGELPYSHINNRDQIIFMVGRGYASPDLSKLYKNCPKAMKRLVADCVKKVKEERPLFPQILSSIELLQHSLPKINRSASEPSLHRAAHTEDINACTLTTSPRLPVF
- measurement.notes: Raf kinase assay (cRaf1 assay / Raf/MEK cascade assay)
- Format: biochemical
- test.context: Table 3; read-out: Raf Kinase activity
pIC50: −log10 of the molar value.
Listed next: entries and their corresponding pIC50.

Check out these entries, answers already filled in.
| smiles.repr | pIC50 |
| --- | --- |
| O=C1Nc2ccc(C(=O)c3ccc([N+](=O)[O-])cc3)cc2C1=Cc1cc(Br)c(O)c(Br)c1 | > 6.00 |
| CC(C)COC(=O)Oc1c(Br)cc(C=C2C(=O)Nc3ccc(Cl)cc32)cc1Br | 4.00 to 5.00 |
| O=C1Nc2c(F)cccc2C1=Cc1cc(Br)c(O)c(Br)c1 | > 6.00 |
| NS(=O)(=O)c1ccc2c(c1)C(=Cc1cc(Br)c(O)c(Br)c1)C(=O)N2 | > 6.00 |
| O=C1Nc2ccccc2C1=Cc1cc([N+](=O)[O-])c(O)c([N+](=O)[O-])c1 | 5.00 to 6.00 |

Exercise: Provide measured pIC50 value, entry: "O=C1Nc2ccc(Br)cc2C1=Cc1cc(Br)c(O)c(Br)c1"
Key: > 6.00

Exercise: Provide measured pIC50 value, entry: "O=C1Nc2ccc([N+](=O)[O-])cc2C1=Cc1cc(Br)c(O)c(Br)c1"
Key: > 6.00

Exercise: Provide measured pIC50 value, entry: "O=C1Nc2ccc(S(=O)(=O)N3CCCC3)cc2C1=Cc1cc(Br)c(O)c(Br)c1"
Key: > 6.00

====

Listed next: entries and their corresponding pIC50.
- assayed.system: Human cRaf1 (Homo sapiens, UniProt P04049)
- Construct: poly-histidine (C); made in house
- measurement.notes: Raf kinase assay (cRaf1 assay / Raf/MEK cascade assay)
- Type: biochemical
- test.context: Table 3; read-out: Raf Kinase activity
pIC50: −log10 of the molar value.

Check out these entries, answers already filled in.
| smiles.repr | assayed.system | pIC50 |
| --- | --- | --- |
| O=C1Nc2ccc(Br)cc2C1=Cc1cc(Cl)c(O)c(Cl)c1 | Human cRaf1 (Homo sapiens, UniProt P04049) | > 6.00 |
| O=C(OCc1cccnc1)Oc1c(Br)cc(C=C2C(=O)Nc3ccc(Cl)cc32)cc1Br | Human cRaf1 (Homo sapiens, UniProt P04049) | 4.00 to 5.00 |
| O=C1Nc2ccc(I)cc2C1=Cc1cc(Br)c(OC(=O)N(CCO)CCO)c(Br)c1 | Human cRaf1 (Homo sapiens, UniProt P04049) | 4.00 to 5.00 |
| O=C1Nc2ccccc2C1=Cc1cc(Br)c(O)c(Br)c1 | Human cRaf1 (Homo sapiens, UniProt P04049) | 5.00 to 6.00 |

Exercise: Provide measured pIC50 value, entry: "COC(=O)c1ccc2c(c1)C(=Cc1cc(Cl)c(O)c(Cl)c1)C(=O)N2"
Key: > 6.00

Exercise: Provide measured pIC50 value, entry: "CN(C)CCCNc1nc(-c2ccc3c(c2)C(=Cc2cc(Br)c(O)c(Br)c2)C(=O)N3)cs1"
Key: > 6.00

Exercise: Provide measured pIC50 value, entry: "O=C1Nc2ccc(Cl)cc2C1=Cc1cc([N+](=O)[O-])c(O)c([N+](=O)[O-])c1"
Key: > 6.00

Exercise: Provide measured pIC50 value, entry: "CCNc1nc(-c2ccc3c(c2)C(=Cc2cc(Br)c(O)c(Br)c2)C(=O)N3)cs1"
Key: > 6.00

Exercise: Provide measured pIC50 value, entry: "O=C1Nc2ccc(NC(=O)c3ccccc3)cc2C1=Cc1cc(Br)c(O)c(Br)c1"
Key: > 6.00

Exercise: Provide measured pIC50 value, entry: "CN1CCN(CC(=O)c2ccc3c(c2)C(=Cc2cc(Br)c(O)c(Br)c2)C(=O)N3)CC1"
Key: > 6.00

====

- Tested on: HT29 (human colon carcinoma cell line)
- measurement.notes: Cell Based Efficacy (MTT Assay), HT29
- test.context: HT-29, 72 hours with compound, 50% inhibitory concentration
measured.property: IC50

Check out these entries, answers already filled in.
| smiles.repr | IC50 |
| --- | --- |
| CCOc1cc(C=C2C(=O)Nc3ccc(C(=O)c4ccccc4)cc32)cc(Br)c1O | 5 to 50 µM |
| O=C1Nc2cc(Br)ccc2C1=Cc1cc(Cl)c(O)c(Cl)c1 | 0.5 to 5 µM |
| NCc1ccc2c(c1)C(=Cc1cc(Br)c(O)c(Br)c1)C(=O)N2 | 5 to 50 µM |

Exercise: Provide measured IC50 value, entry: "Cc1nc(-c2ccc3c(c2)C(=Cc2cc([N+](=O)[O-])c(O)c([N+](=O)[O-])c2)C(=O)N3)cs1"
Key: > 50 µM

Exercise: Provide measured IC50 value, entry: "O=C1Nc2ccc3ncsc3c2C1=Cc1cc(Br)c(O)c(Br)c1"
Key: 0.5 to 5 µM

Exercise: Provide measured IC50 value, entry: "Cc1nc(-c2ccc3c(c2)C(=Cc2cc(Br)c(O)c(Br)c2)C(=O)N3)cs1"
Key: 0.5 to 5 µM

Exercise: Provide measured IC50 value, entry: "O=C1Nc2ccc3ncccc3c2C1=Cc1cc(Br)c(O)c(Br)c1"
Key: 0.5 to 5 µM

Exercise: Provide measured IC50 value, entry: "Cn1nnc(-c2ccc3c(c2)C(=Cc2cc(Br)c(O)c(Br)c2)C(=O)N3)n1"
Key: 0.5 to 5 µM

Exercise: Provide measured IC50 value, entry: "N#Cc1ccc2c(c1)C(=Cc1cc(Br)c(O)c(Br)c1)C(=O)N2"
Key: 5 to 50 µM

====

- assayed.system: Human cRaf1 (Homo sapiens)
- Construct: poly-histidine (C); made in house
- measurement.notes: Raf kinase assay (cRaf1 assay / Raf/MEK cascade assay)
- Type: biochemical
- test.context: Table 3; read-out: Raf Kinase activity
pIC50: −log10 of the molar value.
measured.property: pIC50

| smiles.repr | measured.property | measured |
| --- | --- | --- |
| O=C1Nc2ccc(OC(F)(F)F)cc2C1=Cc1cc(Cl)c(O)c(Cl)c1 | pIC50 | > 6.00 |

Exercise: Provide measured pIC50 value, entry: "COc1cc(C=C2C(=O)Nc3ccc(Cl)cc32)cc(Br)c1O"
Key: > 6.00

Exercise: Provide measured pIC50 value, entry: "O=C1Nc2ccc(C(=O)c3ccncc3)cc2C1=Cc1cc(Cl)c(O)c(Cl)c1"
Key: > 6.00

Exercise: Provide measured pIC50 value, entry: "COC(=O)c1ccc2c(c1)C(=Cc1cc(Br)c(O)c(Br)c1)C(=O)N2"
Key: > 6.00

Exercise: Provide measured pIC50 value, entry: "Nc1nc(-c2ccc3c(c2)C(=Cc2cc(Cl)c(O)c(Cl)c2)C(=O)N3)cs1"
Key: > 6.00

Exercise: Provide measured pIC50 value, entry: "O=C1Nc2ccc(-c3ccsc3)cc2C1=Cc1cc(Br)c(O)c(Br)c1"
Key: > 6.00

Exercise: Provide measured pIC50 value, entry: "COc1cc(C=C2C(=O)Nc3ccccc32)cc(I)c1O"
Key: 5.00 to 6.00

Exercise: Provide measured pIC50 value, entry: "Nc1nc2ccc3c(c2s1)C(=Cc1cc(Br)c(O)c(Br)c1)C(=O)N3"
Key: > 6.00

Exercise: Provide measured pIC50 value, entry: "COc1cc(C=C2C(=O)Nc3ccccc32)cc([N+](=O)[O-])c1O"
Key: 5.00 to 6.00

====

- assayed.system: Human cRaf1 (Homo sapiens)
- Construct: poly-histidine (C); made in house
- measurement.notes: Raf kinase assay (cRaf1 assay / Raf/MEK cascade assay)
- Type: biochemical
- test.context: Table 3; read-out: Raf Kinase activity
measured.property: IC50

Check out these entries, answers already filled in.
| compound | IC50 |
| --- | --- |
| O=C1Nc2ccc(C(=O)CN(CCO)CCO)cc2C1=Cc1cc(Br)c(O)c(Br)c1 [Example 74] | < 1 µM |
| CCOc1cc(C=C2C(=O)Nc3ccc(C(=O)c4ccco4)cc32)cc(Br)c1O [Example 23] | < 1 µM |
| O=C1Nc2ccc(C(=O)c3ccccc3)cc2C1=Cc1cc(Br)c(O)c(Br)c1 [Example 6] | < 1 µM |
| O=C1Nc2ccc(I)cc2C1=Cc1cc(Br)c(OC(=O)N2CCOCC2)c(Br)c1 [Example 151] | 10 to 100 µM |
| O=C1Nc2ccc(C(=O)c3cccnc3)cc2C1=Cc1cc(Cl)c(O)c(Cl)c1 [Example 12] | < 1 µM |

Exercise: Provide measured IC50 value, entry: CC(C)Oc1ccc2c(c1)NC(=O)C2=Cc1cc(Br)c(O)c(Br)c1 [Example 113]
Key: 1 to 10 µM

Exercise: Provide measured IC50 value, entry: Nc1nc(-c2ccc3c(c2)C(=Cc2cc(Br)c(O)c(Br)c2)C(=O)N3)cs1 [Example 30]
Key: < 1 µM

Exercise: Provide measured IC50 value, entry: CCN(CC)C(=O)Oc1c(Br)cc(C=C2C(=O)Nc3ccc(S(N)(=O)=O)cc32)cc1Br [Example 164]
Key: 1 to 10 µM
